- study_target: MAST2, Q6P0Q8
- Sequence (Q6P0Q8 1099-1202): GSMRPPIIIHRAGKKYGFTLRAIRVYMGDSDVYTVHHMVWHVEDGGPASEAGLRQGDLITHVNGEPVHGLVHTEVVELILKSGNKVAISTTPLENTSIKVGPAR
- protocol_notes: holdup assay
- Design: key: below the threshold = too weak to quantify, mostly under pKd 3.1 to 4
- details: plain residues with an end cap or a label only (N-terminal biotin on a linker: ado-ado)
experimental_readout: pKd
Number only, no unit.

A selection of reference data follows.
>>> df
                        binder  obs_value
0   KEKASTETEC [TRPM1, Q7Z4N2]       4.78
1   FVFESRKEIL [TBPL1, P62380]       4.95
2  EKPIDSETKM [SLC1A3, P43003]       5.51

I would be grateful if you could share the reported pKd for IKLETKKTKL [SLC15A2, Q16348] .
5.56

// same read-out, input: STYCDYTIEI [FAM71C, Q8NEG0]
5.12

// same read-out, input: LLQEEWETVM [PTH1R, Q03431]
5.68

// same read-out, input: GNDPDRGTSI [GRID2, O43424]
4.45

// same read-out, input: RSPVATATSC [DUSP5, Q16690]
4.22

// same read-out, input: AKADAQESRL [PLCB2, Q00722]
5.82

// same read-out, input: TKDKVQETQI [LRRC4, Q9HBW1]
5.52

// same read-out, input: DYSNLRETDI [ADRA1D, P25100]
5.22

// same read-out, input: QKASRNESTF [POLR1D, P0DPB6]
4.95
